target_of_assay: phospholamban (Cavia porcellus, UniProt A0A286XLC6)
Construct: calcium uptake into the SR vesicles prepared from cardiac tissue; from tissue; host or cells: guinea-pig heart (ventricular myocardium), SR vesicle preparation
Sequence (A0A286XLC6 1-52): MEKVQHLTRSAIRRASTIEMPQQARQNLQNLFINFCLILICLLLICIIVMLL
method_summary: Calcium uptake assay (fluo-3) in SR vesicles from cardiac tissue
Format: biochemical, guinea-pig
assay_setup: 100 µM compound; vesicles from ventricular myocardium; 0.1 µM free calcium; read-out: The stimulation (%) of Ca^2+ uptake A
The label depends only on activation at 100 µM: criterion met if it is at least 30%, criterion not met if it is smaller.

Incoming: Is the recorded value of activation at 100 µM equal to or greater than 30% for this compound? Cc1c(CCc2ccccc2)c(=O)oc2cc(OCc3nnn[nH]3)cc(OCc3nnn[nH]3)c12
Outgoing: criterion not met

Incoming: Is the recorded value of activation at 100 µM equal to or greater than 30% for this compound? Cc1cc(=O)n(Cc2ccccc2)c2cc(OCc3nnn[nH]3)cc(OCc3nnn[nH]3)c12 [Example 18e]
Outgoing: criterion not met

Incoming: Is the recorded value of activation at 100 µM equal to or greater than 30% for this compound? O=c1oc2cc(OCc3nnn[nH]3)cc(OCc3nnn[nH]3)c2c2c1C(c1ccccc1)CCC2 (stereo not drawn)
Outgoing: criterion not met

Incoming: Is the recorded value of activation at 100 µM equal to or greater than 30% for this compound? Cc1c(Cc2ccccc2)c(=O)oc2cc(OC(C)c3nnn[nH]3)cc(OC(C)c3nnn[nH]3)c12 (stereo not drawn) [Example 11b]
Outgoing: criterion not met

Incoming: Is the recorded value of activation at 100 µM equal to or greater than 30% for this compound? Cc1c(Cc2ccccc2)c(=O)n(Cc2ccccc2)c2cc(OCC(N)=O)cc(OCC(N)=O)c12
Outgoing: criterion not met

Incoming: Is the recorded value of activation at 100 µM equal to or greater than 30% for this compound? Cc1c(Cc2ccccc2)c(=O)n(Cc2ccccc2)c2cc(OCC(=O)O)cc(OCC(=O)O)c12
Outgoing: criterion met
